All figures here come from patent US12286452B2.

target under test: human Cx26 HCs (Homo sapiens)
Construct: expressed in transfected cells; host or cells: E. coli LB2003 (carrying pREP4), transformed with pQE-Cx26, IPTG-induced
assay name: Cx26-dependent growth complementation assay in E. coli LB2003
Format: cell-based
run conditions: read-out: IC50, inhibition of Cx26 by kanamycin A and synthetic AGs; first Table 1
Provide the recorded pIC50 for the entries that follow.
The scale used: pIC50 is minus the common logarithm of the concentration in molar units.

Fill in the blank: the reported pIC50 of `CCCCCCOC[C@H]1O[C@H](O[C@@H]2[C@@H](O)[C@H](O[C@H]3O[C@H](CN)[C@@H](O)[C@H](O)[C@H]3O)[C@@H](N)C[C@H]2N)[C@H](O)[C@@H](N)[C@@H]1OCCCCCC` is ____.
5.21

State the recorded pIC50 for this entry: CCCCOCC1OC(OC2C(N)CC(N)C(OC3OC(CN)C(O)C(O)C3O)C2O)C(O)C(N)C1OCCCC (centres unmarked)
4.72

Look at this compound and give its reported pIC50. COC1C(OC2C(N)CC(N)C(OC3OC(CN)C(OC)C(OC)C3OC)C2OC)OC(COCc2ccccc2)C(OCc2ccccc2)C1N (centres unmarked)
5.08

Which pIC50 value is on record for `CCCCCCCCCOC[C@H]1O[C@H](O[C@H]2[C@H](O)[C@@H](O[C@H]3O[C@H](CN)[C@@H](O)[C@H](O)[C@H]3O)[C@H](N)C[C@@H]2N)[C@H](O)[C@@H](N)[C@@H]1OCCCCCCCCC` ?
4.73

Any idea what pIC50 was measured for CCCCCCCCOC[C@H]1OC(O[C@@H]2C(N)CC(N)C(O[C@H]3OC(CN)[C@@H](O)[C@H](O)C3O)[C@@H]2O)[C@H](O)[C@H](N)C1OCCCCCCCC (some centres unmarked) ?
4.87

---

target under test: Cx43 HCs (Homo sapiens)
Construct: expressed in transfected cells
Sequence (P17302 whole entry): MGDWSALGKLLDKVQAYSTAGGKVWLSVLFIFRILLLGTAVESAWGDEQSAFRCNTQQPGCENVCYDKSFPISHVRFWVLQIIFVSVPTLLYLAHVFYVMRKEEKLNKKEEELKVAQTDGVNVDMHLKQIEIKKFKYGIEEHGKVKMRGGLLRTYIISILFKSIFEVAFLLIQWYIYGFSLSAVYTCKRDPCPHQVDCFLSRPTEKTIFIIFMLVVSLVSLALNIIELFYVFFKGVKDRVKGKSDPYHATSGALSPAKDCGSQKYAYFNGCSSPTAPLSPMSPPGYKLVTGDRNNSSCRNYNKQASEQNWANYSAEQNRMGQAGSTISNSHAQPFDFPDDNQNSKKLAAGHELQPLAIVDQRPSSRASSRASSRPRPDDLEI
assay name: Cx43-dependent growth complementation assay in E. coli LB2003
Type: cell-based
run conditions: 4″,6″-disubstituted AKs, Table 5; read-out: Cx43 IC50
metric: pIC50
# pIC50: negative log10 of molar concentration; output just the value

Any idea what pIC50 was measured for NCC1OC(OC2C(N)CC(N)C(OC3OC(COCc4ccc5ccccc5c4)C(OCc4ccc5ccccc5c4)C(N)C3O)C2O)C(O)C(O)C1O (stereo not drawn) ?
5.21

Which pIC50 value belongs to `NC[C@H]1O[C@H](O[C@H]2[C@H](O)[C@@H](O[C@@H]3O[C@H](COCc4ccc(F)cc4)[C@@H](OCc4ccc(F)cc4)[C@H](N)[C@H]3O)[C@H](N)C[C@@H]2N)[C@H](O)[C@@H](O)[C@@H]1O` ?
4.58

May I ask what pIC50 has been recorded for COc1ccc(COCC2OC(OC3C(N)CC(N)C(OC4OC(CN)C(O)C(O)C4O)C3O)C(O)C(N)C2OCc2ccc(OC)cc2)cc1 (stereo not drawn) ?
5.39

Item under review: Cc1ccc(COCC2OC(OC3C(N)CC(N)C(OC4OC(CN)C(O)C(O)C4O)C3O)C(O)C(N)C2OCc2ccc(C)cc2)cc1 (stereo not drawn) . Reported pIC50?
5.51

What value of pIC50 has been reported for the following compound? NCC1OC(OC2C(N)CC(N)C(OC3OC(COCc4ccc(Cl)cc4)C(OCc4ccc(Cl)cc4)C(N)C3O)C2O)C(O)C(O)C1O (stereo not drawn)
4.77

# pIC50 lookup, item CCCCCCCCOC[C@H]1OC(O[C@@H]2C(N)CC(N)C(O[C@H]3OC(CN)[C@@H](O)[C@H](O)C3O)[C@@H]2O)[C@H](O)[C@H](N)C1OCCCCCCCC (stereo partly drawn)
4.94

---

target under test: human Cx26 HCs (Homo sapiens)
Construct: expressed in transfected cells; host or cells: E. coli LB2003 (carrying pREP4), transformed with pQE-Cx26, IPTG-induced
assay name: Cx26-dependent growth complementation assay in E. coli LB2003
Format: cell-based
run conditions: the 15th table, Cx26; unit not given (cf. the 22nd table); read-out: Cx26 IC50
Could you please report measured IC50 for the items listed next?

Which IC50 value is on record for NC1CC(N)C(O[C@H]2OC(CNC(=O)CCCc3ccc4ccc5cccc6ccc3c4c56)[C@@H](O)C(O)C2O)[C@H](O)C1OC1O[C@H](CO)C(O)C(N)[C@H]1O (stereo partly drawn) [KI09] ?
18.6 µM

Form field: reported IC50 of NCC1O[C@H](OC2C(N)CC(N)C(OC3O[C@H](COc4ccc(Cl)cc4)C(O)C(N)[C@H]3O)[C@H]2O)C(O)C(O)[C@@H]1O (stereo partly drawn) [Compound K84]
17.2 µM

Reported IC50, compound CCCCCCCCCCCC(=O)NCC1O[C@H](OC2C(N)CC(N)C(OC3O[C@H](CO)C(O)C(N)[C@H]3O)[C@H]2O)C(O)C(O)[C@@H]1O (stereo partly drawn) [KI04] : ____
66.7 µM

---

target under test: Cx43 HCs (Homo sapiens)
Construct: expressed in transfected cells
assay name: Cx43-dependent growth complementation assay in E. coli LB2003
Assay type: cell-based
run conditions: 50 μM; Table 6; read-out: Cx43 (% inhibition)
metric: inhibition at 50 µM

Fill in the recorded inhibition at 50 µM for this molecule, with Cx43 HCs (Homo sapiens) as test system: NCC1O[C@H](OC2C(N)CC(N)C(OC3O[C@H](COc4ccc(Cl)cc4)C(O)C(N)[C@H]3O)[C@H]2O)C(O)C(O)[C@@H]1O (some centres unmarked)
68.3%

inhibition at 50 µM of NC1CC(N)C(O[C@H]2OC(CNC(=O)CCCc3ccc4ccc5cccc6ccc3c4c56)[C@@H](O)C(O)C2O)[C@H](O)C1OC1O[C@H](CO)C(O)C(N)[C@H]1O (some centres unmarked) on Cx43 HCs (Homo sapiens)?
69.6%

GET /values?readout=inhibition at 50 µM&system=Cx43 HCs (Homo sapiens)&item= COc1ccc(OC[C@H]2OC(OC3C(N)CC(N)C(O[C@H]4OC(CN)[C@@H](O)C(O)C4O)[C@@H]3O)[C@H](O)C(N)C2O)cc1 (some centres unmarked)
34.8%

Cx43 HCs (Homo sapiens) / inhibition at 50 µM / NC1CC(N)C(O[C@H]2OC(CNC(=O)c3cc(-c4ccccc4)nc4ccccc34)[C@@H](O)C(O)C2O)[C@H](O)C1OC1O[C@H](CO)C(O)C(N)[C@H]1O (some centres unmarked) : value?
51%

Identify the measured inhibition at 50 µM of Cc1ccc(OC[C@H]2OC(OC3C(N)CC(N)C(O[C@H]4OC(CN)[C@@H](O)C(O)C4O)[C@@H]3O)[C@H](O)C(N)C2O)cc1 (some centres unmarked) for Cx43 HCs (Homo sapiens).
76.8%

---

target under test: Cx43 HCs (Homo sapiens)
Construct: expressed in transfected cells
assay name: Cx43-dependent growth complementation assay in E. coli LB2003
Format: cell-based
run conditions: 50 μM; K members, the 21st table; read-out: Cx43 % inhibition
metric: inhibition at 50 µM (%)
Value expressed in %; do not type the unit.

Looking for the measured inhibition at 50 µM of NCC1O[C@H](OC2C(N)CC(N)C(OC3O[C@H](CNC(=O)c4ccccc4-c4c5ccc(=O)cc-5oc5cc(O)ccc45)C(O)C(N)[C@H]3O)[C@H]2O)C(O)C(O)[C@@H]1O (some centres unmarked) , can you help?
55.1

State the recorded inhibition at 50 µM for this entry: Cc1ccc(OC[C@H]2OC(OC3C(N)CC(N)C(O[C@H]4OC(CN)[C@@H](O)C(O)C4O)[C@@H]3O)[C@H](O)C(N)C2O)cc1 (some centres unmarked)
71

Bench note: what inhibition at 50 µM did NCC1O[C@H](O[C@@H]2C(N)C[C@@H](N)C(O[C@H]3OC(COc4ccc(-c5nc6ccccc6[nH]5)cc4)[C@@H](O)C(N)C3O)C2O)C(O)C(O)[C@@H]1O (some centres unmarked) show?
89.4

# lookup: inhibition at 50 µM of NCC1O[C@H](OC2C(N)CC(N)C(OC3O[C@H](COc4ccc(Cl)cc4)C(O)C(N)[C@H]3O)[C@H]2O)C(O)C(O)[C@@H]1O (some centres unmarked)
76.7

Entry NCC1O[C@H](OC2C(N)CC(N)C(OC3O[C@H](COc4ccccc4)C(O)C(N)[C@H]3O)[C@H]2O)C(O)C(O)[C@@H]1O (some centres unmarked) has what inhibition at 50 µM?
46.7

Quick one: inhibition at 50 µM for NCC1O[C@H](OC2C(N)CC(N)C(OC3O[C@H](COc4ccc([N+](=O)[O-])cc4)C(O)C(N)[C@H]3O)[C@H]2O)C(O)C(O)[C@@H]1O (some centres unmarked) ?
49.3

Which inhibition at 50 µM value is on record for COc1ccc(OC[C@H]2OC(OC3C(N)CC(N)C(O[C@H]4OC(CN)[C@@H](O)C(O)C4O)[C@@H]3O)[C@H](O)C(N)C2O)cc1 (some centres unmarked) ?
34.8

Would you kindly share the measured inhibition at 50 µM for Cc1ccc(S(=O)(=O)OC[C@H]2OC(OC3C(N)CC(N)C(O[C@H]4OC(CN)[C@@H](O)C(O)C4O)[C@@H]3O)[C@H](O)C(N)C2O)cc1 (some centres unmarked) ?
51
